- target-entity: T1, recombinant human Trop-2/Fc/His fusion protein (manufactured by R&D) (human, UniProt P09758 27-274, limits assumed)
- T1 construct: Bought reagent; also called Trop-2/Fc/His chimeric protein; recombinant Trop-2
- T1 sequence: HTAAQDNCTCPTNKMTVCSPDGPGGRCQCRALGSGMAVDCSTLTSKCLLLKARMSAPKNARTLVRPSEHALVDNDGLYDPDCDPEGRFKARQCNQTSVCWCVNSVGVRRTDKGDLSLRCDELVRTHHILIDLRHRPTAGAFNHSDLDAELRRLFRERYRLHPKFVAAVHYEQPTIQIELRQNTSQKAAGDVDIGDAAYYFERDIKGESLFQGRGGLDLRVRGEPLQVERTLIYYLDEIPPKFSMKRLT
- experimental-protocol: SPR (Biacore T100), Trop-2/Fc/His captured by Tetra-His antibody, antibody as analyte, Bivalent Analyte model, mean of duplicates
kon values for the binders below.

Would you please look over these solved cases?
binder	quantity-measured	endpoint-result
anti-Trop-2 human chimeric antibody KM4591 (antibody, human IgG1, V domains shown, Same polypeptides as KM4590 (human IgG1, kappa), made in FUT8 knockout CHO/DG44 cells, fucose content 0%) VH: QVQLQQSGPELVRPGTSVRISCKASGYTFTIYWLGWVKQRPGHGLEWIGNIFPGSAYINYNEKFKGKATLTADTSSSTAYMQLSSLTSEDSAVYFCAREGSNSGYWGQGTTLTVSS VL: DIVMTQSPSSLSVSAGEKVTMTCKSSQSLLNSGNQQNYLAWYQQKPGQPPKLLIYGASTRESGVPDRFTGSGSGTDFTLTINSVQAEDLAVYYCQSDHIYPYTFGGGTKLEIK	kon	323000 M⁻¹ s⁻¹
KM4097 humanized antibody HV5LV0 (antibody, V domains shown, Expressed from pKANTEX93 (human constant regions) in FUT8 knockout CHO cells; no fucose attached) VH: QVQLVQSGAEVKKPGASVKVSCKASGYTFTIYWLGWVKQAPGQGLEWIGNIFPGSAYINYNEKFKGKATITADTSTSTAYMELSSLRSEDTAVYFCAREGSNSGYWGQGTLVTVSS VL: DIVMTQSPDSLAVSLGERATINCKSSQSLLNSGNQQNYLAWYQQKPGQPPKLLIYGASTRESGVPDRFSGSGSGTDFTLTISSLQAEDVAVYYCQSDHIYPYTFGQGTKLEIK	kon	383000 M⁻¹ s⁻¹

### Prompt So what's the measured kon for this one? KM4097 humanized antibody HV10LV4 (antibody, V domains shown, Expressed from pKANTEX93 (human constant regions) in FUT8 knockout CHO cells; no fucose attached) VH: QVQLVQSGPEVVKPGASVKISCKASGYTFTIYWLGWVKQAPGQGLEWIGNIFPGSAYINYNEKFKGKATLTADTSTSTAYMELSSLRSEDTAVYFCAREGSNSGYWGQGTLLTVSS VL: DIVMTQSPDSLAVSAGERVTMNCKSSQSLLNSGNQQNYLAWYQQKPGQPPKLLIYGASTRESGVPDRFSGSGSGTDFTLTISSVQAEDVAVYYCQSDHIYPYTFGQGTKLEIK
### Response 342000 M⁻¹ s⁻¹

### Prompt So what's the measured kon for this one? KM4097 humanized antibody HV0LV0 (antibody, V domains shown, Expressed from pKANTEX93 (human constant regions) in FUT8 knockout CHO cells; no fucose attached) VH: QVQLVQSGAEVKKPGASVKVSCKASGYTFTIYWLGWVRQAPGQGLEWMGNIFPGSAYINYNEKFKGRVTITADTSTSTAYMELSSLRSEDTAVYYCAREGSNSGYWGQGTLVTVSS VL: DIVMTQSPDSLAVSLGERATINCKSSQSLLNSGNQQNYLAWYQQKPGQPPKLLIYGASTRESGVPDRFSGSGSGTDFTLTISSLQAEDVAVYYCQSDHIYPYTFGQGTKLEIK
### Response 330000 M⁻¹ s⁻¹

### Prompt So what's the measured kon for this one? KM4097 humanized antibody HV4LV0 (antibody, V domains shown, Expressed from pKANTEX93 (human constant regions) in FUT8 knockout CHO cells; no fucose attached) VH: QVQLVQSGPEVKKPGASVKVSCKASGYTFTIYWLGWVKQAPGQGLEWIGNIFPGSAYINYNEKFKGRVTITADTSTSTAYMELSSLRSEDTAVYFCAREGSNSGYWGQGTLVTVSS VL: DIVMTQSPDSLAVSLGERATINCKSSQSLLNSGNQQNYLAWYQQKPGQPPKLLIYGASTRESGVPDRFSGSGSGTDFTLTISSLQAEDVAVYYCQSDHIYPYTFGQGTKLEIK
### Response 335000 M⁻¹ s⁻¹
